Reported values of % antithrombin neutralization (thrombin amidolytic activity on S-2238, no heparin) for individual entries
Assayed target: human antithrombin (human, UniProt P01008 33-464)
Sequence (P01008 33-464 limits assumed): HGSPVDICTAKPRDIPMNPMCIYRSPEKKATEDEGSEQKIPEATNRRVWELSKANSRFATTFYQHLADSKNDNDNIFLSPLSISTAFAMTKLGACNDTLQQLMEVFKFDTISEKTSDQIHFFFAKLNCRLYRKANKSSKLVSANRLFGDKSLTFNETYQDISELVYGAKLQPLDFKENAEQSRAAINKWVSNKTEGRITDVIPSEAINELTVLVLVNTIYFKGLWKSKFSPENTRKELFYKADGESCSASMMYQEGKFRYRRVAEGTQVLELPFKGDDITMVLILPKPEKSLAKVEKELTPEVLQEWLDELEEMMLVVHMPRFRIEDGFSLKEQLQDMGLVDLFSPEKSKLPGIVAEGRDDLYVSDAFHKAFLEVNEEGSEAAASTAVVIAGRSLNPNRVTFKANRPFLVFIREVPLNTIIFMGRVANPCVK
Test summary: cell-based or functional assay

Some entries whose results are on file:
Binder	Value observed
KB-AT-004 (VHH, Monovalent anti-antithrombin single-domain antibody; also called sdAb KB-AT-004) VHH: VQLQQSGGGLVQPGGSLRLSCAASAMTFSIRAWAWYRQAPGKQRELVASIGTGDITNYADSVKGRFTISRDNAKNTFYLQMNSLKPEDTAVYYCNGYRSTYAWGQGTQVTVSS	55%
KB-AT-006 (VHH, Monovalent anti-antithrombin single-domain antibody; also called sdAb KB-AT-006) VHH: QVQLQQSGGGLVQAGGSLRLSCAASGRTFSNNGMGWFRQAPGKEREFVAAISWSSGSTYYADSVKGRYTISRDNAKNTVYLQMNSLKPEDTAVYYCAARTRYNSGYFTRNYDYWGQGTQVTVSS	58%
KB-AT-001 (VHH, Monovalent anti-antithrombin single-domain antibody; also called sdAb KB-AT-001) VHH: QVQLQQSGGDLAQRGGSLRLSCAASGRTFRNYVMGWFRQAPGKDPEFIAGINRSGAITYYGDSVKGRFTISRDNAKNTVSLQMNSLEPEDTAVYYCAAGETTWSIRRDDYDYWGQGTQVTVSS	62%

Turning to the following binder.
The recorded % antithrombin neutralization (thrombin amidolytic activity on S-2238, no heparin) for KB-AT-007 (VHH, Monovalent anti-antithrombin single-domain antibody; same CDRs as KB-AT-001; also called sdAb KB-AT-007) VHH: QVQLQQSGGGLVQAGGSLRLSCAASGRTFRNYVMGWFRQAPGKDPEFIAGINRSGAITYYGDSVKGRFTISRDNAKNTVSLQMNSLEPEDTAVYYCAAGETTWSIRRDDYDYWGQGTQVTVSS is 61%
